Biological target: Neu5Ac9Ac(a2-3)Gal(b1-3)GlcNAc
Assay: glycan array binding signal (z-score within array); higher = stronger binding
Details: glycan notation: IUPAC condensed, linker removed
This is one part of a sample in which the strongest signals are shown more often than they occur.
# binning rule on glycan array binding signal (z-score): class 1: < -0.2; class 2: ≥ -0.2 and < 0.3; class 3: ≥ 0.3

>  <BINDER>
CLEC5A (Homo sapiens), Q9NY25 (protein) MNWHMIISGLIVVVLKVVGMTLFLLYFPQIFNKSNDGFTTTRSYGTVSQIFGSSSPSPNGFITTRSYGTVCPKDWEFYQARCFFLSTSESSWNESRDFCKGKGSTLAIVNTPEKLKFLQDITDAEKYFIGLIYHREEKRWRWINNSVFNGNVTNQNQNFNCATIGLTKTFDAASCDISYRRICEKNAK

>  <CLASS NAME>
class 2

$$$$

[in] Sort Flo11 (Saccharomyces cerevisiae), Q1H8S8 (protein) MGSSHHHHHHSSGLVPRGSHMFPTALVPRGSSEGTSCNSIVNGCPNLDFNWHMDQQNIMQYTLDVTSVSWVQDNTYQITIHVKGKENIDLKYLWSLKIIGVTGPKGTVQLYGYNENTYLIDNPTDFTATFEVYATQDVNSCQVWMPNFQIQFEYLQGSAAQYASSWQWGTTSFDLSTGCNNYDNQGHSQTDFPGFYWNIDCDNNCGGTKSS into one of the categories.
[out] class 1

[in] Then CC1G-11630 (Coprinopsis cinerea), A8P462 (protein) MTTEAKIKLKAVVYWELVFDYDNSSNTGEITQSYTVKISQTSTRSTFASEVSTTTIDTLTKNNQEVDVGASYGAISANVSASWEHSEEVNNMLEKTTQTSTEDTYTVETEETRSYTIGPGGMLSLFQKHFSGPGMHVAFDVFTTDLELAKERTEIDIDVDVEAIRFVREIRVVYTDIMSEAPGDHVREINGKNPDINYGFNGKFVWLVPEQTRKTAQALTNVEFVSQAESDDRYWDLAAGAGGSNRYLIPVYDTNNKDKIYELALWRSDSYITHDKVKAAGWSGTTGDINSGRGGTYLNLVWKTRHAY ?
[out] class 2

[in] Then AAL (Agrocybe aegerita), Q6WY08 (protein) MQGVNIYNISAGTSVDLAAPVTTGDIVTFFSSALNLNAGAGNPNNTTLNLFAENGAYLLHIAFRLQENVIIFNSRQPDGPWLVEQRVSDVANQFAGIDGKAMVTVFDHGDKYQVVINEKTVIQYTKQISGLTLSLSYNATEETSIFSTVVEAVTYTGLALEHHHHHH ?
[out] class 2

[in] Then LlpB (Pseudomonas fluorescens) (protein) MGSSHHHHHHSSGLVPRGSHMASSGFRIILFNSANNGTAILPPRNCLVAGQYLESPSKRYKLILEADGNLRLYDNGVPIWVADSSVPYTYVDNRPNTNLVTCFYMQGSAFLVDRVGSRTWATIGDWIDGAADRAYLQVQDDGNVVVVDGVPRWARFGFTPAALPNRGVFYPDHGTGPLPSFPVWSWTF ?
[out] class 2

[in] Then rMpL (Macrolepiota procera) (protein) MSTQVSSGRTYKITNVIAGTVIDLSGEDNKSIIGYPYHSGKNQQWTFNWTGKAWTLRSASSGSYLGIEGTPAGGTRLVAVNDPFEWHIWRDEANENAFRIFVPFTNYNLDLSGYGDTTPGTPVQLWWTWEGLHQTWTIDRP ?
[out] class 1

[in] Then Cohesin-hMARCO (Homo sapiens) (protein) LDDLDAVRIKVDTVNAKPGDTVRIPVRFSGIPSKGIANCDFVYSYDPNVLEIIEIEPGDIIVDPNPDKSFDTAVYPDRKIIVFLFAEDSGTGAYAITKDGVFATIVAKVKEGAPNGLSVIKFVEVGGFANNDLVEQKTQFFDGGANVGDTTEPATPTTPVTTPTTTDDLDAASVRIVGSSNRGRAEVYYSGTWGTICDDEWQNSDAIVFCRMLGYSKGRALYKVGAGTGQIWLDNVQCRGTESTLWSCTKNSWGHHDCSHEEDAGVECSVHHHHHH ?
[out] class 3

[in] Then LFA (Limax flavus) (protein) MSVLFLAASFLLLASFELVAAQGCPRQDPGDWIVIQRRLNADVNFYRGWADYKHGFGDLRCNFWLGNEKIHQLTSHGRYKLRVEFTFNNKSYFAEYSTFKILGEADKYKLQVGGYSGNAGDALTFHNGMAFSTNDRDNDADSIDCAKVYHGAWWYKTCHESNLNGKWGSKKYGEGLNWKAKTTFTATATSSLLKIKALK ?
[out] class 1

[in] Then MXA PilAct-eGFP (Myxococcus xanthus), Q59589 (protein) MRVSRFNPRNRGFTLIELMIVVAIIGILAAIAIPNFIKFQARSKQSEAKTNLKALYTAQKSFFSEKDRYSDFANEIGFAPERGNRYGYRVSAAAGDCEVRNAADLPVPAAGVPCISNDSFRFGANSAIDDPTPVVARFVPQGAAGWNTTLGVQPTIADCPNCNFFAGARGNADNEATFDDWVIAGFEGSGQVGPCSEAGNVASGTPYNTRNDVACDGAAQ ?
[out] class 3

[in] Then Arath Fbox LD (Arabidopsis thaliana) (protein) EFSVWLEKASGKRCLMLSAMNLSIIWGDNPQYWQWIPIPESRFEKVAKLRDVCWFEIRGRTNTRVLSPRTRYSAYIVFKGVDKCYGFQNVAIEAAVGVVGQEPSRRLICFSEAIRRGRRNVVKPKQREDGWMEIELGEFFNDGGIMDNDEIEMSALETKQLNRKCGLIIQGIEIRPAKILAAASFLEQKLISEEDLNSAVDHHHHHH ?
[out] class 3

[in] Then SP16663B-bot-321-25-321 (Bacteroides ovatus) (protein) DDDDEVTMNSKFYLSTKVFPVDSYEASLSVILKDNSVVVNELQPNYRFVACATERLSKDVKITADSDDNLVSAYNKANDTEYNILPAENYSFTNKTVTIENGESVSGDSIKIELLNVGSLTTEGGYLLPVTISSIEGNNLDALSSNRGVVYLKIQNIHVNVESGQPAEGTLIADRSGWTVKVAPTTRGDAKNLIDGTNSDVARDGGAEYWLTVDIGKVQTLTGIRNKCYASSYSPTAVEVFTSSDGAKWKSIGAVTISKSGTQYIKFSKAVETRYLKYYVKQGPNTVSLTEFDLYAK ?
[out] class 2
